property measured: melting point

INSERT INTO measurements (compound, measured) VALUES
  ('O=C(Nc1ccc(N2CCOCC2)cc1)c1cc2cc(Cl)ccc2o1 [Compound 99]', '223.8 to 225.6 °C'),
  ('O=C(NCc1ccccc1-c1ccccc1)c1cc2cc(Cl)ccc2o1 [Compound 72]', '129.8 to 132.8 °C'),
  ('COC(=O)[C@@H](NC(=O)c1cc2cc(Cl)ccc2o1)c1ccccc1 [Compound 85]', '76.5 to 79.1 °C'),
  ('O=C(NCc1ccncc1)c1cc2cc(Cl)ccc2o1 [Compound 81]', '163.1 to 166.2 °C'),
  ('O=C(NCC1COc2ccccc2O1)c1cc2cc(Cl)ccc2o1 (stereo not drawn) [Compound 113]', '121.1 to 124.3 °C'),
  ('CC(C)(C)c1ccc(CNC(=O)c2cc3cc(Cl)ccc3o2)cc1 [Compound 71]', '129.5 to 131.1 °C'),
  ('COc1ccc(CNC(=O)c2oc3ccccc3c2-n2cccc2)c(OC)c1 [Compound 18]', '46 to 51.8 °C'),
  ('COc1ccc(CNC(=O)c2cc3cc(Cl)ccc3[nH]2)c(OC)c1 [Compound 111]', '205.7 to 209.3 °C'),
  ('O=C(c1cc2cc(Cl)ccc2o1)N1CCCC1c1ccc(F)cc1 (stereo not drawn) [Compound 104]', '104.4 to 106.1 °C');

###

target: human Kv4.3/KChIP2.2 potassium channel (Homo sapiens, UniProt Q9UK17); construct: expressed in transfected cells; assay: Whole cell patch clamp, CHO-K1 cells stably expressing Kv4.3/KChIP2.2; format: cell-based; settings: CHO-K1; 1 μM; read-out: Kv4.3 peak in %: remaining peak height measured after application of the compound and relative to the blank
Sequence (Q9UK17 whole entry): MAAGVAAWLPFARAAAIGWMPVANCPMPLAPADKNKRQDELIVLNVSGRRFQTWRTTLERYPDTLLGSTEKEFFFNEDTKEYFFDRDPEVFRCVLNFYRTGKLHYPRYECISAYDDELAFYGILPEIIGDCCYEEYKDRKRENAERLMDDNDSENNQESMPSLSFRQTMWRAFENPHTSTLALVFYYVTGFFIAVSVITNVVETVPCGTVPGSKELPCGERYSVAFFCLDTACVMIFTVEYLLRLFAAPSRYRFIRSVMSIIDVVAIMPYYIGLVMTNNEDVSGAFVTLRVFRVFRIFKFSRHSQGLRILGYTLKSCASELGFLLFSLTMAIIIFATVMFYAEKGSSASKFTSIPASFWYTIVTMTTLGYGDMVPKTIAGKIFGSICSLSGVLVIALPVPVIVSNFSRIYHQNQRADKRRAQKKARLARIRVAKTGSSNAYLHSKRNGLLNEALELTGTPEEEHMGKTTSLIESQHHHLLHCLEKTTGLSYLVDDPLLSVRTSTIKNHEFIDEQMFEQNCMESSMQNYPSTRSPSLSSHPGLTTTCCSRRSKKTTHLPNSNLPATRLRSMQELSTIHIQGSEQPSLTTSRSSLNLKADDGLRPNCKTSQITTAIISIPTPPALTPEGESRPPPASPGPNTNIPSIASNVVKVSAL
Sequence (Q9NS61 whole entry partner): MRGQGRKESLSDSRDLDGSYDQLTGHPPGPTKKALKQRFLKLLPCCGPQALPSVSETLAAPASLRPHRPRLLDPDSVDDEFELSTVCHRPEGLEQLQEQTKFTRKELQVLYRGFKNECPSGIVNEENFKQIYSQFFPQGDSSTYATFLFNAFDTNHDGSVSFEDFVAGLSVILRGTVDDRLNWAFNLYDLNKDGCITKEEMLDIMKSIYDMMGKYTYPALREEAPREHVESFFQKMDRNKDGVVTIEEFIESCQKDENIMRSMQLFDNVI
property measured: remaining activity at 1 µM (%)

INSERT INTO results (compound, measurement_units, measured) VALUES
  ('COc1ccc(CNC(=O)c2sc3ccc(Cl)cc3c2C)c(OC)c1 [Compound 21]', '%', 92),
  ('Cc1c(C(=O)N2CCCCC2Cc2ccccc2)oc2ccc(Cl)cc12 (stereo not shown) [Compound 106]', '%', 87),
  ('O=C(NCc1ccc2c(c1)OCO2)c1cc2cc(Cl)ccc2o1 [Compound 92]', '%', 91),
  ('COc1ccc(NC(=O)c2cc3cc(Cl)ccc3o2)c(OC)c1 [Compound 24]', '%', 102),
  ('COc1ccc(CC(=O)c2cc3ccccc3o2)c(OC)c1 [Compound 23]', '%', 99),
  ('O=C(NCc1cccs1)c1cc2cc(Cl)ccc2o1 [Compound 39]', '%', 91),
  ('O=C(c1cc2cc(Cl)ccc2o1)N1Cc2ccccc2C1 [Compound 26]', '%', 99),
  ('COc1ccc(CNC(=O)c2oc3ccccc3c2C)c(OC)c1 [Compound 43]', '%', 94),
  ('O=C(OCc1ccccc1)c1cc2cc(Cl)ccc2o1 [Compound 44]', '%', 80),
  ('CC(C)(C)c1ccc(CNC(=O)c2cc3cc(Cl)ccc3o2)cc1 [Compound 71]', '%', 95),
  ('O=C(NCc1ccccc1)c1cc2cc(Cl)ccc2o1 [Compound 47]', '%', 95),
  ('COc1ccc(CNC(=O)c2oc3ccc(Cl)cc3c2C)c(OC)c1 [Compound 16]', '%', 88),
  ('COc1ccc(CNC(=O)c2cc3ccccc3s2)c(OC)c1 [Compound 32]', '%', 100),
  ('COc1ccc(CNC(=O)c2oc3ccccc3c2-n2cccc2)c(OC)c1 [Compound 18]', '%', 88),
  ('CC(=O)Oc1ccc(CNC(=O)c2cc3cc(Cl)ccc3o2)cc1 [Compound 33]', '%', 100),
  ('O=C(c1cc2cc(Cl)ccc2o1)N1CCc2ccccc2C1 [Compound 27]', '%', 86),
  ('CN(C)CC(NC(=O)c1cc2cc(Cl)ccc2o1)c1ccccc1 (stereo not shown) [Compound 49]', '%', 98),
  ('O=C(c1cc2cc(Cl)ccc2o1)N1CCC(c2ccccc2)CC1 [Compound 38]', '%', 99),
  ('O=C(c1cc2cc(Cl)ccc2o1)N1CCCCC1Cc1ccccc1 (stereo not shown) [Compound 28]', '%', 86);

Values from patent US20080039442A1
